# Test system: MS2 coat protein
# method_notes: apparent KD of MS2 coat protein, switch OFF state (with FMN for OFF switches, without FMN for ON switches); designed switch direction (-1 OFF switch, 1 ON switch): 1; higher = weaker reporter binding
# measurement_setup: FMN input: 0 or 200 uM; Eterna round: R93 (includes R88 designs)
Some sequences, each annotated with its measured apparent KD of MS2 coat protein.
// note: answer is a bare numeric in nM

{"sequence_code": "GAGAAACAUGAGGAUCACCCAUGUAGAAAUAUGGGAGGAUAUACAGAGACGAGAGUCAAAGUAGAAGGCCUAGAAG [77%, Mat - Mod of Eli - With 4 more G's]", "unit_tag": "nM", "apparent KD of MS2 coat protein": 66.1}
{"sequence_code": "AAAUAAAUGACUAAGGAUAUCUCAGAGAAAACAUGAGGAUCACCCAUGUAAUAAUAACAUGAGUGAGAGAAGGUAGUCAACAAAC [Same State 2.3 (Pariah 4 -changed stack on 9nt hairpin)]", "unit_tag": "nM", "apparent KD of MS2 coat protein": 57.5}
{"sequence_code": "AACAAUCUAUCUGAGGAUAUGUGUCGAAAGACAUGAGGAUCACCCAUGUAAAAACAUGGGAAGAUACAGAAGGCAGAUAGAUUGA [SS2: 1161]", "unit_tag": "nM", "apparent KD of MS2 coat protein": 29.3}
{"sequence_code": "GAAAAACAUGAGGAUCACCCAUGUAGAGAUAUGGGAGGAUAUACAAAGACGAAAGUCGAGGUAGAAGGCCUAAAAG [Garnet 55]", "unit_tag": "nM", "apparent KD of MS2 coat protein": 116}

INPUT: State, in one line, measured apparent KD of MS2 coat protein of GAAAAACAUGAGGAUCACCCAUGUAGAAAUAUGGGAGGAUAUACAAACUCGAAAGUCAAAGUAGAAGGCCUAAAAG [Garnet 29]
OUTPUT: 224

INPUT: State, in one line, measured apparent KD of MS2 coat protein of AGACAUAACAGAGAGGAUAUCCAAUAGAAAACAUGAGGAUCACCCAUGUGAAAGAAAAUAAAAUGGGAGAAGGCUCACAUACAGA [Topaz 39]
OUTPUT: 23

====

# System: K4 kissing-loop RNA reporter;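 further: bound reporter read as fluorescence of individual clusters on recovered sequencing chips by microscopy, with normalized cluster intensities fitted with a binding model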
# method_notes: apparent KD of K4 kissing-loop reporter; higher = weaker reporter binding
# measurement_setup: Eterna round: R107; input ligand: none
Some sequences, each annotated with its measured apparent KD of K4 kissing-loop reporter.
// note: answer is a bare numeric in nM

{"sequence_code": "GCCGUACGCAUGGAUACCAGCAUCAGAUCUUAGUGAUGUUAAGUCGAGAGUUGGUCAAAAUGCCCUUGGCAGCCAUGCGUACGGC", "apparent KD of K4 kissing-loop reporter [nM]": 105}

INPUT: State, in one line, measured apparent KD of K4 kissing-loop reporter of AGGAGCGUGCGAUGUAAAUCGCACGCUCCACGAGGACCGGUACGGCCGCCACUCGCUCGUGCAGAGUGAUGUUCUGCCGGCGAAU [#2 Same State - Tryptophan A Attempt #24 (HarryS)]
OUTPUT: 270

INPUT: State, in one line, measured apparent KD of K4 kissing-loop reporter of ACCUACGAUCACAAAAGUGAUUGUAGGAUCUAGGAUAUGCUGAAGAGCAGAAGGAGAGUGAUGUUCUCAUCUCACGAAAGUGAGA [whbob_Ex_FMNA__2th189]
OUTPUT: 216

INPUT: State, in one line, measured apparent KD of K4 kissing-loop reporter of UUAGAGAUCUCAGGAUAUGAGUGAUGUUGGUAUCAAGAUCUGAGAUAGAAUUCUAUCUCAGAUCAAUCAGAAGGGAGAUCUCAUU [AK2.1 Exc FMN B]
OUTPUT: 534

INPUT: State, in one line, measured apparent KD of K4 kissing-loop reporter of GUAUCGCUAGGAGGAUAUUUCAAAUCGCCAAUAAAUGGUGAUACGGAGUGAUGUUCCGAUUUACGGAAAGAAGGCCUAGUGAUAC [FMN B 6]
OUTPUT: 322

INPUT: State, in one line, measured apparent KD of K4 kissing-loop reporter of GGUAGCGCUAGAGAUACCAGUCAUAUCGCUCUGGAGUGAUGUUCCGGAACGUGCGGAGAAGACCCUUGGCAGCUCAUGACGGUGU [Exclusion Theophylline B GF 4]
OUTPUT: 224

====

# Test system: MS2 coat protein
# method_notes: apparent KD of MS2 coat protein, switch OFF state (with FMN for OFF switches, without FMN for ON switches); designed switch direction (-1 OFF switch, 1 ON switch): -1; higher = weaker reporter binding
# measurement_setup: FMN input: 0 or 200 uM; Eterna round: R93 (includes R88 designs)
Mark NO for apparent KD of MS2 coat protein values under 70 nM, and YES for everything at or above.

# example entries with known answers
{"sequence_code": "AAACCACAUGAGGAUCACCCAUGUCAGGAUAUGCUAUGGAAAAUAAAAAUAAAACAUAGCAGAAGGGACAAAAA [Denovo 6]", "assigned_category": "NO"}
{"sequence_code": "AACAUGUAAGGAUAUCCAAGAAAAGAAAAGAAAGAAAAGAAGGAGAAGGUACAUGAGGAUCACCCAUGUAAGAA [EteRNA is fun!]", "assigned_category": "NO"}
{"sequence_code": "AACAGUACAGGAUAUACAUGAGGAUCACCCAUGUGAGAAUUAAGUGGCGAACCACAAAGUAGAAGGGUACUGAA [Mat - Exclusion 3 - JL mod - D7]", "assigned_category": "YES"}

We now examine a further sequence.
INPUT: Has GAAAACCUAGGAUAUACAUGAGGAUCACCCAUGUCAGUAGACUGGGUAAGGUCUCUCAGUAGAAGGAGGACCCA [Ratilein] a recorded apparent KD of MS2 coat protein greater than or equal to 70 nM?
OUTPUT: YES

====

# Test system: MS2 coat protein
# method_notes: apparent KD of MS2 coat protein; designed switch direction (-1 OFF switch, 1 ON switch): -1; higher = weaker reporter binding
# measurement_setup: input ligand: microRNA oligo, concentration not stated
measured_parameter: apparent KD of MS2 coat protein (µM)
// note: answer is a bare numeric in µM

{"sequence_code": "ACAUGAGGAUCACCCAUGUGACCACGAUGGCUGAUGUAGAGCUAGGAUAUGUGUGAAUAUCUAUCACAGAAGGAGCUUGACUGG [Deportation 52 - Jieux - Exclusion NG 3] (Eterna round: R96, puzzle: Exclusion NG 3)", "unit_tag": "µM", "apparent KD of MS2 coat protein": 0.0183}

INPUT: State, in one line, measured apparent KD of MS2 coat protein of AGUUGACGAGAAGGAUAUCCGAACCUUUAAAGAGGAGAAGGUCUAUCAACAUGAGGAUCACCCAUGUACAUCGCUCGGGUGUCC [Arenis] (Eterna round: R96, puzzle: Exclusion NG 1)
OUTPUT: 0.0547

====

# Test system: MS2 coat protein
# method_notes: apparent KD of MS2 coat protein; designed switch direction (-1 OFF switch, 1 ON switch): -1; higher = weaker reporter binding
# measurement_setup: input ligand: none
Some sequences, each annotated with its measured apparent KD of MS2 coat protein.
// note: answer is a bare numeric in nM

The following sequences have reported results that may help.
{"sequence_code": "AAAUAGCAUGAGGAUAUUGGACUGGAUUCAGUGCGAGAAGGCAUGACAUGAGGAUCACCCAUGUUGUGUUGGGA [EX6 #9] (Eterna round: R97, puzzle: Exclusion 6)", "tested_on": "MS2 coat protein", "measured_parameter": "apparent KD of MS2 coat protein", "endpoint_result": 17}
{"sequence_code": "GCAGCUAACUGUGAUAACAGCACAUGAGGAUCACCCAUGUCUGAGGAUAUGGACUGGAUUACAGUCCAGAAGGCAGAAUGCUGC [Zipper Style 7] (Eterna round: R96, puzzle: Exclusion NG 3)", "tested_on": "MS2 coat protein", "measured_parameter": "apparent KD of MS2 coat protein", "endpoint_result": 13.4}
{"sequence_code": "CCAAGCUAAAUCAUUAACAACAUGAGGAUCACCCAUGUGUAAGCAAUUAUGUUUGGGCUCUUUAGUGCUCGUCUUAU [JR_STOV1_Sub043] (Eterna round: R97, puzzle: Sensor, turn-off variant 1)", "tested_on": "MS2 coat protein", "measured_parameter": "apparent KD of MS2 coat protein", "endpoint_result": 16.3}

As a next step, examine the sequence that follows.
INPUT: State, in one line, measured apparent KD of MS2 coat protein of AUUACAUGAGGAUAUACAUGAGGAUCACCCAUGUAAAUAGCAGUGGUAGUCAACUCGAGUAGAAGGCGUAACGU [Eternabot (L1) Solution 51] (Eterna round: R97, puzzle: Exclusion 3)
OUTPUT: 58.7

====

# System: MS2 coat protein
# method_notes: apparent KD of MS2 coat protein, switch OFF state (with FMN for OFF switches, without FMN for ON switches); designed switch direction (-1 OFF switch, 1 ON switch): -1; higher = weaker reporter binding
# measurement_setup: FMN input: 0 or 200 uM; Eterna round: R93 (includes R88 designs)
Some sequences, each annotated with its measured apparent KD of MS2 coat protein.
The number alone won't do; follow it with the unit.

The following sequences have reported results that may help.
{"sequence_code": "AAAAAGUGAGGAUAUACAUGAGGAUCACCCAUGUAAAAGGUCGCGGGAGCGGAGGACGGUAGAAGGCGCAAAAA [Excls3-VIIi]", "apparent KD of MS2 coat protein": "28.9 nM"}
{"sequence_code": "AUAGUACAUGAGGAUCACCCAUGUCAGGAUAUUGGAUAUGAAAAAAAAAAAAAGUUAACGAGAAGGGACUAUAA [EX1 Malc#14]", "apparent KD of MS2 coat protein": "33.6 nM"}
{"sequence_code": "AAGAAGUGAGGAUAUACAAAAUAAAAGAAAAGAAAGAAAGAACAUGAGGAUCACCCAUGUAGAAGGUACAAGAA [Khakheperre Senusret II]", "apparent KD of MS2 coat protein": "22 nM"}
{"sequence_code": "GAAAAACAUGAGGAUCACCCAUGUAAGGAUAUGCUAAAAAACACGGAAAACGUGAAUAGCAGAAGGUACAAAAA [Mat - Exclusion 1 - Eli mod - D86]", "apparent KD of MS2 coat protein": "23.6 nM"}
{"sequence_code": "AAAAAGUGAGGAUAUACAUGAGGAUCACCCAUGUAAAAGGUCAGGGUGGCGGAGGACGGUAGAAGGCGCAAAAA [Excls3-IX]", "apparent KD of MS2 coat protein": "40.2 nM"}

INPUT: State, in one line, measured apparent KD of MS2 coat protein of AGAUAGUCAGGAUAUACGAACAAGAAAAAAGACGAGAACGGACAUGAGGAUCACCCAUGUAGAAGGGACUAGCA [Diamond 10]
OUTPUT: 30.2 nM

INPUT: State, in one line, measured apparent KD of MS2 coat protein of AGUCAUACAGGAUAUACAUGAGGAUCACCCAUGUUUAUCCUAAAAUAAAAAAACUCAUGUAGAAGGGUAUGACA [EX3 214: Super Stable 14]
OUTPUT: 31.3 nM

INPUT: State, in one line, measured apparent KD of MS2 coat protein of CCUAUGUCAGGAUAUCAGUAGUAAAAAAAAAAAAUUACUACUGAGAAGGGACAUGAGGAUCACCCAUGUCCCUU [EX4 309: Super Stable 9]
OUTPUT: 14.3 nM

INPUT: State, in one line, measured apparent KD of MS2 coat protein of AAGAAGUGAGGAUAUACAUGAGGAUCACCCAUGUAAAAGAAAGAAGGGAAAGAGAAAAGUAGAAGGCGCAAGAA [Neferibre Psamtik II]
OUTPUT: 42.1 nM

INPUT: State, in one line, measured apparent KD of MS2 coat protein of AAAAAGUCAGGAUAUACGGGAGUGCGAAAGCACAAAAAAAAACAUGAGGAUCACCCAUGUAGAAGGGACAAGAA [Married to this design, 61% 5]
OUTPUT: 34.5 nM

INPUT: State, in one line, measured apparent KD of MS2 coat protein of AAGAACUGAGGAUAUACAUAAUAAAAGAAAAGAAAGAAAGAACAUGAGGAUCACCCAUGUAGAAGGCGGAAGAA [Khaneferre Sobekhotep IV]
OUTPUT: 24.5 nM

INPUT: State, in one line, measured apparent KD of MS2 coat protein of AUCUUGUCAGGAUAUCGUAUAAUAUGGAAAACAUAGAGAUACGAGAAGGGACAUGAGGAUCACCCAUGUAAAAC [May 97]
OUTPUT: 40 nM

INPUT: State, in one line, measured apparent KD of MS2 coat protein of AAAUUGUCAGGAUAUCGUAGAACUCUAAAAUAGAGGAGCUACGAGAAGGGACAUGAGGAUCACCCAUGUAAAAC [May 88]
OUTPUT: 68.4 nM

Value source: the supplement of paper PMC9170038
